tested on: A498; assay: NCI 60 cell line panel screen (SRB); assay type: cell-based, human; details: A498 (Renal Cancer); TGI: PG=0
The molecules listed here are annotated with their Log10TGI50.
Experimental Readout: Log10TGI50 (log10M)

# Molecule, Unit Abbreviation, Relation Symbol, Assay Value
records = [
    ("CC1CCC2C(C)C(CC(COC(=O)c3cc[n+]([O-])cc3)CC3OC4OC5(C)CCC6C(C)CCC(C3C)C46OO5)OC3OC4(C)CCC1C32OO4 (stereo not shown) [Compound 13]", "log10M", "=", "−5.31"),
    ("CC1CCC2C(C)C(CC(CO)CC3OC4OC5(C)CCC6C(C)CCC(C3C)C46OO5)OC3OC4(C)CCC1C32OO4 (stereo not shown) [Compound 4, bis-trioxane primary alcohol]", "log10M", "=", "−5.00"),
    ("C[C@@H]1CC[C@H]2[C@@H](C)C(=O)O[C@@H]3O[C@]4(C)CC[C@@H]1[C@]32OO4 [Artemisinin]", "log10M", ">", "−4.00"),
    ("CC1CCC2C(C)C(CC(O)(CO)CC3OC4OC5(C)CCC6C(C)CCC(C3C)C46OO5)OC3OC4(C)CCC1C32OO4 (stereo not shown) [Compound 5, bis-trioxane vicinal diol]", "log10M", "=", "−4.51"),
]

* * *

system: DU-145; assay: NCI 60 cell line panel screen (SRB); format: cell-based, human; conditions: Prostate Cancer, DU-145
The molecules listed here are annotated with their Log10GI50.

# Molecule, Tgt, Log10GI50
data = [
    ("CC(=O)O[C@H]1C(=O)[C@@]2(C)[C@H]([C@H](OC(=O)c3ccccc3)[C@]3(O)C[C@H](OC(=O)[C@H](O)[C@@H](NC(=O)c4ccccc4)c4ccccc4)C(C)=C1C3(C)C)[C@]1(OC(C)=O)CO[C@@H]1C[C@@H]2O [Paclitaxel, paclitaxel, reference compound]", "DU-145", "−9.38"),
    ("CC1CCC2C(C)C(CC(COC(=O)c3cc[n+]([O-])cc3)CC3OC4OC5(C)CCC6C(C)CCC(C3C)C46OO5)OC3OC4(C)CCC1C32OO4 (stereo not shown)", "DU-145", "−7.48"),
    ("CC1CCC2C(C)C(CC(CO)CC3OC4OC5(C)CCC6C(C)CCC(C3C)C46OO5)OC3OC4(C)CCC1C32OO4 (stereo not shown)", "DU-145", "−6.24"),
    ("CC1CCC2C(C)C(CC(O)(CO)CC3OC4OC5(C)CCC6C(C)CCC(C3C)C46OO5)OC3OC4(C)CCC1C32OO4 (stereo not shown)", "DU-145", "−4.83"),
]

* * *

The compounds listed here are annotated with their Log10TGI50.
test system: KM12; assay: NCI 60 cell line panel screen (SRB); format: cell-based, human; settings: KM12 (Colon Cancer); TGI: PG=0

# Compound, Log10TGI50
rows = [
    ("CC1CCC2C(C)C(CC(COC(=O)CCC(=O)O)CC3OC4OC5(C)CCC6C(C)CCC(C3C)C46OO5)OC3OC4(C)CCC1C32OO4 (stereo not drawn) [Compound 8a, bis-trioxane primary succinate monoester]", "<−8.30 log10M"),
    ("CC1CCC2C(C)C(CC(O)(CC3OC4OC5(C)CCC6C(C)CCC(C3C)C46OO5)CS(=O)(=O)c3ccc(C(=O)O)cc3)OC3OC4(C)CCC1C32OO4 (stereo not drawn) [Compound 10c]", "<−8.30 log10M"),
    ("C[C@@H]1CC[C@H]2[C@@H](C)C(CC(O)(COC(=O)CCC(=O)O)CC3OC4O[C@]5(C)CC[C@H]6[C@H](C)CC[C@@H]([C@H]3C)C46OO5)OC3O[C@]4(C)CCC1C32OO4 (stereo partly drawn) [Compound 9, tertiary alcohol primary succinate ester]", "<−8.30 log10M"),
    ("CC1CCC2C(C)C(CC(COCC(=O)O)CC3OC4OC5(C)CCC6C(C)CCC(C3C)C46OO5)OC3OC4(C)CCC1C32OO4 (stereo not drawn) [Compound 12b, bis-trioxane O-acetic acid]", "<−8.30 log10M"),
    ("C[C@@H]1CC[C@H]2[C@@H](C)C(CC(O)(CC3OC4O[C@]5(C)CC[C@H]6[C@H](C)CC[C@@H]([C@H]3C)C46OO5)c3ccc(C(=O)O)cc3)OC3O[C@]4(C)CCC1C32OO4 (stereo partly drawn) [Compound 11b]", "<−8.30 log10M"),
    ("C[C@@H]1CC[C@H]2[C@@H](C)C(=O)O[C@@H]3O[C@]4(C)CC[C@@H]1[C@]32OO4", ">−4.00 log10M"),
]

Data origin, for the record: patent US7417156B2
